Multiple publications report Ki for Sodium-dependent serotonin transporter (Rattus norvegicus); what follows is a combined list.
# number only, unit nM dropped from output

compound	reportedMetric	reading
CN(C)CCC(Oc1ccc(C(F)(F)F)cc1)c1ccc(C(=O)N2CCN(C3CCCCC3)CC2)cc1 (stereo not shown)	Ki	223
Cc1ccc2c3c(ccc2n1)OC[C@H](CN1CCN(c2cccc(C)c2C)CC1)O3	Ki	88.5
CNCc1cc(N2CCN(C(C)C)CC2)ccc1Oc1ccc(Cl)c(Cl)c1	Ki	2

Shift focus to the following entry.
Task: Param item = Cc1ccc2c3c(ccc2n1)OC[C@H](CN1CCN(c2coc4ccccc24)CC1)O3 ; retrieve measured Ki.
Output: 16
